Numbers sourced from ChEMBL document CHEMBL1201861.

- System: EW-11;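 further: growth inhibition of human EW-11 cells, measured with a cell viability assay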
- protocol-details: cells
- Type: functional, cell-based, Homo sapiens
- condition: Homo sapiens, EW-11
- Description: SANGER: Inhibition of human EW-11 cell growth in a cell viability assay.
pIC50: −log10 of the molar value.
experimental-endpoint: pIC50

Req: Looking for the measured pIC50 of CS(=O)(=O)CCNCc1ccc(-c2ccc3ncnc(Nc4ccc(OCc5cccc(F)c5)c(Cl)c4)c3c2)o1 , can you help?
Resp: < 5.70

Req: So what's the measured pIC50 for this one? CC(=O)O[C@@H]1[C@@H](OC(C)=O)[C@@H](O)[C@H](Oc2c(-c3ccc(O)cc3)oc3cc(O)cc(O)c3c2=O)O[C@H]1C
Resp: < 5.00

Req: What pIC50 value was documented for this compound, CN(c1ncccc1CNc1nc(Nc2ccc3c(c2)CC(=O)N3)ncc1C(F)(F)F)S(C)(=O)=O ?
Resp: < 5.59

====

- Test system: BEN;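 further: growth inhibition of the BEN cell line, read out with a cell viability assay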
- protocol-details: cells
- Format: functional, cell-based, Homo sapiens
- condition: ben
- Description: SANGER: Inhibition of human BEN cell growth in a cell viability assay.
experimental-endpoint: IC50

Req: Query (compound): Cc1cc([C@@H](C)Nc2ccccc2C(=O)O)c2nc(N3CCOCC3)cc(=O)n2c1 ; field requested: IC50
Resp: > 5.12 µM

====

- Tested on: NB13
- protocol-details: cells
- Format: functional, cell-based, Homo sapiens
- condition: Homo sapiens, NB13
- Description: SANGER: Inhibition of human NB13 cell growth in a cell viability assay.
experimental-endpoint: IC50 (nM)
Hi! Could you send only the number? It should be in nM, unit omitted.

Req: Quick check: IC50 on NB13, item Cc1cc(Nc2cc(N3CCN(C)CC3)nc(Sc3ccc(NC(=O)C4CC4)cc3)n2)n[nH]1 ?
Resp: 280

Req: Request: IC50, test system NB13, entry CCC(=O)N1CCN(c2ccc(-n3c(=O)ccc4cnc5ccc(-c6cnc7ccccc7c6)cc5c43)cc2C(F)(F)F)CC1;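 further: cell viability readout measuring growth inhibition of human NB13 cells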
Resp: 47.8

====

- Test system: WM-115
- protocol-details: cells
- Assay type: functional, cell-based, Homo sapiens
- condition: wm-115
- Description: SANGER: Inhibition of human WM-115 cell growth in a cell viability assay.
experimental-endpoint: IC50

Req: Return reported IC50; argument: Cc1cc([C@@H](C)Nc2ccccc2C(=O)O)c2nc(N3CCOCC3)cc(=O)n2c1
Resp: > 5.12 µM

====

Consider the following molecules; for each one, report its pIC50.
- Test system: NCI-H1437;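 further: growth inhibition of human NCI-H1437 cells, read out by a cell viability assay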
- protocol-details: cells
- Type: functional, cell-based, Homo sapiens
- condition: Homo sapiens, NCI-H1437
- Description: SANGER: Inhibition of human NCI-H1437 cell growth in a cell viability assay.
When answering, recall that pIC50 equals minus log10 of the concentration in mol/L, and write that number alone.

Req: Would you kindly share the measured pIC50 for Cn1cncc1[C@@](N)(c1ccc(Cl)cc1)c1ccc2c(c1)c(-c1cccc(Cl)c1)cc(=O)n2C ?
Resp: 5.09

Req: Param item = C=CCc1cccc(/C=N/NC(=O)CN2CCN(Cc3ccccc3)CC2)c1O ; retrieve measured pIC50.
Resp: 5.65

Req: Given the entry C=CCNC1=C2C[C@@H](C)C[C@H](OC)[C@H](O)[C@@H](C)/C=C(\C)[C@H](OC(N)=O)[C@@H](OC)/C=C\C=C(/C)C(=O)NC(=CC1=O)C2=O , report its measured pIC50.
Resp: 6.92

Req: Given COc1cc([C@@H]2c3cc4c(cc3[C@@H](O[C@@H]3O[C@@H]5CO[C@@H](C)O[C@H]5[C@H](O)[C@H]3O)[C@H]3COC(=O)[C@H]23)OCO4)cc(OC)c1O [ETOPOSIDE] , state its recorded pIC50.
Resp: 5.47
